test: in vitro; details: human, hela cells, % viability
Mark rule met only when viability at 28.5 h, 10 µM stays strictly below 90%. Values equal to the cut-off are rule not met.

Cc1cc(C)c2c(c1)C1(C(=O)N2)C(C#N)=C(N)Oc2[nH]nc(-c3ccccc3)c21 (centres unmarked) = rule not met
Cc1ccccc1-c1nnc(SC(C)C)n1CCNCCO [CBK200084T] = rule met
CCc1c(C)nc2ccccc2c1SCCOC(=O)Nc1ccccc1 [CBK155466T] = rule met

Lookup: In plain terms, does Cc1cc(CC(=O)NCCCn2ccnc2C(C)C)on1 come in under 90% for viability at 28.5 h, 10 µM?
Found: rule not met

====

experiment: in vitro; conditions: human, hela cells, % viability
assayMetric: viability at 28.5 h, 10 µM (%)
Write the number in % without appending the unit.

CC(C)c1ccc(S(=O)(=O)NCCC#N)cc1 = 105

Lookup: What value of viability at 28.5 h, 10 µM has been reported for the following molecule? CC1Oc2ccc(S(=O)(=O)Nc3ccc(CCC(=O)O)cc3)cc2NC1=O (stereo not drawn)
Found: 92.3

Lookup: Now consider O=C(C1CCOCC1)N1CCCC[C@H]2CN(Cc3ccccc3)C[C@H]21 .
Found: 86.9

Lookup: Now consider Cc1cc(S(=O)(=O)NCCCn2ccnc2)c(C)cc1Br .
Found: 91.8

====

In this section, each of the compounds is paired with its reported viability at 28.5 h, 10 µM.
test: in vitro; conditions: human, hela cells, % viability
Write the number in % without appending the unit.

Cc1cc(N2CCOCC2)nc2ccc(NC(=O)c3ccncc3)cc12 [CBK288587] = 99.3

Lookup: What value of viability at 28.5 h, 10 µM has been reported for the following compound? COc1ccccc1-c1ccccc1CN(C)Cc1ccccc1N1CCOCC1 [CBK286000]
Found: 88.7

Lookup: Now consider Cc1ccc(C(=O)Nc2nc(C)c(-c3n[nH]c(=S)n3C)s2)cn1 [CBK295327] .
Found: 91.8

Lookup: Now consider O=C(c1cncnc1)N1CCc2ccccc21 [CBK200272] .
Found: 102

Lookup: Now consider CC1(C)Cc2ccccc2C(NCCC(=O)O)=N1 [CBK023412] .
Found: 97.9

Lookup: Now consider CC(=O)c1ccc(NC(=O)NNS(=O)(=O)c2ccc(F)cc2)cc1 [CBK266944] .
Found: 109

====

assay: in vitro; details: human, hela cells, % viability
In this section, each of the compounds is paired with its reported viability at 28.5 h, 10 µM.
Quote the value and follow it with the unit of measurement.

CCOC(=O)CN1CCCN(c2nccc(OCC3COc4ccccc4O3)n2)CC1 (stereo not shown) = 100%
Cc1nc(C)c(-c2cnc(NS(=O)(=O)c3ccc(Cl)cc3)nc2)s1 = 86.9%
O=C(O)c1ccc(CN2CCC[C@H]2c2nc(-c3ccc(F)cn3)no2)cc1 = 96.9%
COc1ccc(Cc2c(C)nc3c(C(=O)NCC4COc5ccccc5O4)cnn3c2C)cc1 (stereo not shown) = 102%

Lookup: What value of viability at 28.5 h, 10 µM has been reported for the following compound? COc1c(C)cnc(COC(=O)N2CCOCC2)c1C
Found: 105%

Lookup: Now consider O=C(c1cc(-c2cccs2)[nH]n1)N1CCCCCC1 .
Found: 92.1%

Lookup: Now consider N#Cc1ccc(NCC(=O)Nc2ccn(Cc3ccncc3)n2)cc1 .
Found: 89.7%

Lookup: Now consider Cc1c(F)cccc1CNC1CCC(NC(=O)OC(C)(C)C)CC1 (stereo not shown) .
Found: 85%

Lookup: Now consider CCNS(=O)(=O)c1ccc2c(c1)N(Cc1n[nH]c(CC)n1)CC2 .
Found: 86.9%

Lookup: Now consider O=C(COc1cccc2c1CCNC2=O)Nc1ccccc1 .
Found: 89%
